Target: HLA-A*0201 (human)
Assay: inhibition of 125I-probe binding to purified HLA-A*0201
Details: remark: other sources report otherwise

{"columns": ["binder", "IC50"],
 "data": [
  ["YLQLVFGIEV [MAGE2.157 (10-mer)]", "< 500 nM"],
  ["KMVELVHFL [MAGE2.112 (9-mer)]", "< 500 nM"]
]}
